- Protocol notes: In vivo evaluation of the complex of nanoparticles and PSP: plasma PSP concentration and pharmacokinetic parameters after duodenal administration
- Condition context: male, SD, rats, 9.4 mg in terms of PSP per rat, n=6, mean ± S.D.
Measured metric: Tmax

Compound	Measured metric	Result
O=S1(=O)OC(c2ccc(O)cc2)(c2ccc(O)cc2)c2ccccc21 [Aq. PSP-Na sol. (control prep.), phenolsulfonphthalein]	Tmax	55.2 min
